test system: HCT-15 colon; assay: NCI-60 one-dose screen, 48 h; details: 10 µM unless noted
About 83,000 compounds went through this panel and 20% of them were active in at least one assay; those are over-represented in the sample as a whole. The source made the active and inactive calls. The calls were made as follows: active = growth percent below 10; inactive = the rest.
One label from this list, please: 1 (yes) (active), 0 (no) (inactive)

Below, 3 molecules whose answers are already recorded.
Cc1nc2sc(C(=O)Nc3cccc(Br)c3)c(N)c2cc1C(O)c1ccccc1 (centres undefined) = 0 (no)
O=c1scc(-c2ccc(C(F)(F)F)cc2)s1 = 0 (no)
O=CN1N=C(c2cccc(Nc3ccnc4cc(Cl)ccc34)c2)CC1c1ccccc1 (centres undefined) = 0 (no)

stdin: What outcome does the record of this test show for CC/C(=C(/c1ccc(Cl)cc1)c1ccc(OCCN2CCCCC2)cc1)c1ccc(OC)cc1 ?
stdout: 0 (no)

stdin: What outcome does the record of this test show for COC1=CC(c2ccc[nH]2)=N/C1=C\c1[nH]c(C)c(C(=O)OC(C)C)c1C ?
stdout: 1 (yes)

stdin: What outcome does the record of this test show for CC(C)c1ccc(C(=O)Nc2sc3c(c2C(N)=O)CCC(=O)C3)cc1 ?
stdout: 1 (yes)

stdin: What outcome does the record of this test show for CCN(CC)CC(O)COc1c(Br)c(Br)c(Br)c2c1OC(C)(C)C2 (centres undefined) ?
stdout: 0 (no)
